test: Maximum tolerated dose in beagle dog treated intravenously twice a day; type: toxicity, organism-based, Canis lupus familiaris; conditions: in vivo, route iv
MEASUREMENT_LABEL: MTD

Form field: reported MTD of Cl.O=P(O)(O)c1ccc2c(n1)CCNC2 > 500 mg/kg

---

assay: Maximum tolerated dose in Sprague-Dawley rat treated intravenously twice a day; format: toxicity, organism-based; settings: in vivo, route iv
MEASUREMENT_LABEL: MTD

Name the reported MTD value associated with the molecule Cl.O=P(O)(O)c1ccc2c(n1)CCNC2 > 500 mg/kg

---

assay: Half life in Sprague-Dawley rat at 2 mg/kg, iv measured upto 24 hrs by LC-MS/MS analysis; format: ADME, organism-based; details: in vivo
MEASUREMENT_LABEL: half-life (h)
# unit: h | format: bare number

For the compound Cl.O=P(O)(O)c1ccc2c(n1)CCNC2 , what half-life is on record? 2.53

---

test: AUC (0 to infinity) in Sprague-Dawley rat at 2 mg/kg, iv measured upto 24 hrs by LC-MS/MS analysis; assay type: ADME, organism-based; settings: in vivo
MEASUREMENT_LABEL: AUC(0-inf) (ng·h/mL)
Express your answer in ng·h/mL, writing the number without its unit.

Request the reported AUC(0-inf) associated with Cl.O=P(O)(O)c1ccc2c(n1)CCNC2 11600

---

target: Plasminogen (Homo sapiens); assay: Inhibition of plasminogen activation assessed as inhibition of recombinant human tissue plasminogen activator (rt-PA)-induced clot lysis measured after clot lysis pre-incubated for 15 mins by buffer clot lysis assay
Sequence (P00747 97-580 limits assumed): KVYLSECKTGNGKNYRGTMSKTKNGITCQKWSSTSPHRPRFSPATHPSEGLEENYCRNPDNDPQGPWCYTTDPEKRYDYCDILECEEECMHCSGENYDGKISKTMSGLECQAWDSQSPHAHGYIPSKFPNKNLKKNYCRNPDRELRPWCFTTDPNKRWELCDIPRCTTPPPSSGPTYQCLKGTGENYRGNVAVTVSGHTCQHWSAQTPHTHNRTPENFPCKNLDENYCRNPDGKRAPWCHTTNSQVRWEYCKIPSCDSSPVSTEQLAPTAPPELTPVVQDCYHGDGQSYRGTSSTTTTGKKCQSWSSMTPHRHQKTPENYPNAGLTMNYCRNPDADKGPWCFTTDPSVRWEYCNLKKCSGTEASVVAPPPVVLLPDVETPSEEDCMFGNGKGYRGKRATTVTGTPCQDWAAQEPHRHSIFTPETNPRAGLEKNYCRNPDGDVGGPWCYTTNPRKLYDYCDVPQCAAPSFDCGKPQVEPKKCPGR
Sequence (P00747 581-810 limits assumed): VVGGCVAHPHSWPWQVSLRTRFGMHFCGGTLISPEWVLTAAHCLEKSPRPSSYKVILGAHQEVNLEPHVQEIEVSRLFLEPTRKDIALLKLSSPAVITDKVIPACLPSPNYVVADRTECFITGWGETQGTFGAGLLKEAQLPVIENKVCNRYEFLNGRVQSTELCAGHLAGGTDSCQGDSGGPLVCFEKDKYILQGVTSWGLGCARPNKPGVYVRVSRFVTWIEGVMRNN
MEASUREMENT_LABEL: IC50 (µM)
Enter your answer as a number in µM; do not include the unit.

What IC50 value was documented for this compound, Cl.O=P(O)(O)c1ccc2c(n1)CCNC2 ? 8.42

---

assay: AUC (0 to infinity) in beagle dog at 1 mg/kg, iv measured upto 24 hrs by LC-MS/MS analysis; assay type: ADME, organism-based, Canis lupus familiaris; conditions: in vivo
MEASUREMENT_LABEL: AUC(0-inf) (ng·h/mL)
API: value field is a number in ng·h/mL; no unit string.

Suppose we examine the compound NC[C@H]1CC[C@H](C(=O)O)CC1 ; what AUC(0-inf) value has been reported? 6680

---

assay: Volume of distribution at steady state in beagle dog at 1 mg/kg, iv measured upto 24 hrs by LC-MS/MS analysis; type: ADME, organism-based, Canis lupus familiaris; settings: in vivo, read-out: Vdss
MEASUREMENT_LABEL: Vd

Find the recorded Vd belonging to NC[C@H]1CC[C@H](C(=O)O)CC1 and report it. 0.587 L/kg

---

biological target: Glycine receptor (alpha-1/beta) (Homo sapiens, UniProt P23415+P48167); experiment: Inhibition of glycine receptor alpha1beta (unknown origin)
Sequence (P23415 whole entry): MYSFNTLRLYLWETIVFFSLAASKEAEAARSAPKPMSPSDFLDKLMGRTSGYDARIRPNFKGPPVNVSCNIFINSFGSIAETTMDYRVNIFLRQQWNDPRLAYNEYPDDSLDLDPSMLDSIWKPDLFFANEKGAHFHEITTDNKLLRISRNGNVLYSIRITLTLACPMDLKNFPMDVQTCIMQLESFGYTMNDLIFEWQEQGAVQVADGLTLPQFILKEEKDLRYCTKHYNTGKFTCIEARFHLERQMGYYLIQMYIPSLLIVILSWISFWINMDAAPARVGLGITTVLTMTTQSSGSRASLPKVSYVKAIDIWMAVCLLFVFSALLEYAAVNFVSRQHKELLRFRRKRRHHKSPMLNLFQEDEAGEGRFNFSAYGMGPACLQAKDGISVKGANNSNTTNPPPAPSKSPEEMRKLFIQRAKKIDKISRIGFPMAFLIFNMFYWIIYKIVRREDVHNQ
Sequence (P48167 whole entry): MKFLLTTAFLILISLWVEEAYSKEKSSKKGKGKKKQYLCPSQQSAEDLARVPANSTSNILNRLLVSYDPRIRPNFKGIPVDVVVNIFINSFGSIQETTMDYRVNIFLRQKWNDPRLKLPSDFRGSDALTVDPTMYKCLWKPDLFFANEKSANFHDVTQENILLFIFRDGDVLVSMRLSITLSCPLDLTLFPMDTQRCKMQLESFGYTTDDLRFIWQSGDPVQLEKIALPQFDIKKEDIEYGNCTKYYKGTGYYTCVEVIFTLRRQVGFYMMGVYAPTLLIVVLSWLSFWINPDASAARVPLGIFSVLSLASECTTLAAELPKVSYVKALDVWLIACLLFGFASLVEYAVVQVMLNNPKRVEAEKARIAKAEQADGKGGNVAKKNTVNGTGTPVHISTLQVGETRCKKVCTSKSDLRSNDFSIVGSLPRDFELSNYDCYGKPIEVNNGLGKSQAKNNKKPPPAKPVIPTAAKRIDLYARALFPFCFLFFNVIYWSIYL
MEASUREMENT_LABEL: pIC50
When answering, recall that pIC50 equals minus log10 of the concentration in mol/L, and write that number alone.

Hi! What's the reported pIC50 for Cl.O=P(O)(O)c1ccc2c(n1)CCNC2 on Glycine receptor (alpha-1/beta) (Homo sapiens, UniProt P23415+P48167)? 3.27

---

assay: AUC (0 to infinity) in Sprague-Dawley rat at 2 mg/kg, IM measured upto 24 hrs by LC-MS/MS analysis; format: ADME, organism-based; settings: in vivo
MEASUREMENT_LABEL: AUC(0-inf) (ng·h/mL)
Respond with the bare value in ng·h/mL.

Reported AUC(0-inf) for Cl.O=P(O)(O)c1ccc2c(n1)CCNC2 : what is it? 14200
